target: ScNsrR ([4Fe-4S] NsrR) (Streptomyces coelicolor, UniProt Q9L132); construct: untagged native full-length protein from pNsrR, E. coli BL21λDE3, anaerobic heparin purification, homodimer (~37 kDa by gel filtration); C-terminal His6 form (apo 17,474 Da) used for native MS; experiment: CD titration at […] nm, single-site fit
Sequence (Q9L132 whole entry): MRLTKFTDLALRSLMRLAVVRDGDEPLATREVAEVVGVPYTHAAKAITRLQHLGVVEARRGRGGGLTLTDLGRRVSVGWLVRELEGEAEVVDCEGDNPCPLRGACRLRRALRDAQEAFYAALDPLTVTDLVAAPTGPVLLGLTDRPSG
Value kind: Kd

Look over these answered cases.
>>> print(df.to_string())
                          compound  value_kind   result
0                             OCCS          Kd  ~3.8 mM
1  OC(CS)C(O)CS (stereo not drawn)          Kd   9.9 mM

Turning now to a further compound:
What does the record list as Kd for `CCS` ?
~1.9 mM
